TARGET_ENTITY: CYP 2C9 (Homo sapiens, UniProt P11712)
Sequence (P11712 whole entry): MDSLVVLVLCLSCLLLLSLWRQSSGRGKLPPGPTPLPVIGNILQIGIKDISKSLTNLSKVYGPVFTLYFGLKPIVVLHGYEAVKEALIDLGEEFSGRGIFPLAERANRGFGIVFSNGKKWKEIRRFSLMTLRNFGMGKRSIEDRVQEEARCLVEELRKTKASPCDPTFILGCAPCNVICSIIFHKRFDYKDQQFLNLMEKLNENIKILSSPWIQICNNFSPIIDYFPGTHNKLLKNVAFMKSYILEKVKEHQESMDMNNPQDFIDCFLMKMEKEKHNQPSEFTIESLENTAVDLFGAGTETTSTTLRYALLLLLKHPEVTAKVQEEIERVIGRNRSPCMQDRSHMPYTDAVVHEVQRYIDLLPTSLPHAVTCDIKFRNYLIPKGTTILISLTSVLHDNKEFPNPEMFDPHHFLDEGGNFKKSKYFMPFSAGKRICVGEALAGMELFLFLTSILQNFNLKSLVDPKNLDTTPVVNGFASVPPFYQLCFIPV
ASSAY_INFO: inhibition of CYP enzymes 2C9
Format: in vitro ADME
MEASURE: IC50 (µM)
Answers are plain numbers, in µM.

# lookup: IC50 of CC/C(=C(/c1ccc(/C=C/C(=O)O)cc1)c1cc2ccccc2[nH]1)c1ccc(F)cc1Cl
10.1

====

TARGET_ENTITY: UniProt:P10635
Sequence (P10635 whole entry): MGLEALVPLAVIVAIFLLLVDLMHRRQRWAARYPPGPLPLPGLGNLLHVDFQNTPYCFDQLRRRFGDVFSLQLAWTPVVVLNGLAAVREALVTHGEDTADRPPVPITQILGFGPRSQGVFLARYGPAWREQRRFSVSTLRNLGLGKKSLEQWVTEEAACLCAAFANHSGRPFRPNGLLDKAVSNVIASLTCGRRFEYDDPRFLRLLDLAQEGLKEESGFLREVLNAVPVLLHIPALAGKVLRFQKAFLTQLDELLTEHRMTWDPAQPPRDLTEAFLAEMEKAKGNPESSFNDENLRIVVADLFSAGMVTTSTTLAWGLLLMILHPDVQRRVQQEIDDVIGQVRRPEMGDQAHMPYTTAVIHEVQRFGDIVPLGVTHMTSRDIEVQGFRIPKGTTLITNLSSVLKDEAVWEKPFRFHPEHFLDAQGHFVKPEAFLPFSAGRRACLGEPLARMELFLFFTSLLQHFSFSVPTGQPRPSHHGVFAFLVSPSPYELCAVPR
ASSAY_INFO: inhibition of CYP enzymes 2D6
Assay type: in vitro ADME
MEASURE: IC50 (µM)
Numbers only, in µM.

API: value(readout=IC50, system=UniProt:P10635) for record CC/C(=C(/c1ccc(/C=C/C(=O)O)cc1)c1cc2ccccc2[nH]1)c1ccc(F)cc1Cl
43.4

====

TARGET_ENTITY: CYP 2C19 (Homo sapiens)
Sequence (P33261 whole entry): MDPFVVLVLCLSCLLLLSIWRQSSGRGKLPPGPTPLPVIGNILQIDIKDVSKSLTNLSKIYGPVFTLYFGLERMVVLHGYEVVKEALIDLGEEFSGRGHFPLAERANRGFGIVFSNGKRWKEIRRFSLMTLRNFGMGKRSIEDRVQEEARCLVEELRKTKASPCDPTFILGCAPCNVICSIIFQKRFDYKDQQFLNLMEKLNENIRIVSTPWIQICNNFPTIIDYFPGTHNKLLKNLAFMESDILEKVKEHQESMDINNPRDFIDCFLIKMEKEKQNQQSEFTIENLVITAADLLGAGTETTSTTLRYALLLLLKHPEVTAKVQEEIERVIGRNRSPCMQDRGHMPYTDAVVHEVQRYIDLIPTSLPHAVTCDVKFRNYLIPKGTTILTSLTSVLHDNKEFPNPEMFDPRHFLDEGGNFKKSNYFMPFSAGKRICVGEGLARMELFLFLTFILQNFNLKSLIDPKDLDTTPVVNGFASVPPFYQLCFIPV
ASSAY_INFO: inhibition of CYP enzymes 2C19
Type: in vitro ADME
MEASURE: IC50 (µM)
One number for each entry, in µM.

Request body: readout IC50, system CYP 2C19 (Homo sapiens), query CC/C(=C(/c1ccc(/C=C/C(=O)O)cc1)c1cc2ccccc2[nH]1)c1ccc(F)cc1Cl . Return the value.
40.4

====

ASSAY_INFO: in vivo PK properties (cassette PK)
MEASUREMENT_SETUP: plasma, iv, 1 mg/kg, i.V. 1 mpk
MEASURE: C0 (nM)
Answers are plain numbers, in nM.

| COMPOUND | UNIT_DESCRIPTOR | C0 |
| --- | --- | --- |
| CC/C(=C(/c1ccc(/C=C/C(=O)O)cc1)c1cc2ccccc2[nH]1)c1ccc(F)cc1Cl [Compound I-1] | nM | 3480 |

Look up C0: CC/C(=C(/c1ccc(/C=C/C(=O)O)cc1)c1ccc2[nH]ncc2c1)c1ccc(F)cc1Cl [ARN-810, reference compound]
1640

====

Tested on: MCF-7 cells
ASSAY_INFO: MCF-7 cell proliferation inhibition assay
Type: cell-based
MEASUREMENT_SETUP: Homo sapiens, MCF7, 144 h, read-out: anti-proliferation in MCF-7 cells (nM)
Label T when IC50 < 8 nM; otherwise F.

Here's what some known entries look like.
| SMILES_REPRESENTATION | ASSIGNED_CATEGORY |
| --- | --- |
| CC/C(=C(/c1ccc(/C=C/C(=O)O)cc1)c1cc2ccccc2[nH]1)c1cc(Cl)sc1Cl | F |
| CC/C(=C(/c1ccc(/C=C/C(=O)O)cc1)c1cc2ccccc2[nH]1)c1ccc(F)cc1F | F |
| CC/C(=C(/c1ccc(/C=C/C(=O)O)cc1)c1cc2ccccc2[nH]1)c1ccsc1C#N | F |
| CC/C(=C(\c1cc2ccccc2[nH]1)c1c(F)cc(/C=C/C(=O)O)cc1F)c1ccc(F)cc1Cl | F |
| CC/C(=C(/c1ccc(/C=C/C(=O)O)cc1)c1cc2ccccc2[nH]1)c1c(C)cccc1Cl | F |

Proceed to the following item.
Lab note: IC50 threshold 8 nM. Does this molecule come in strictly under it? CC/C(=C(/c1ccc(OCCN2CC(CF)C2)cc1)c1cc2ccccc2[nH]1)c1ccc(F)cc1Cl
T

====

TARGET_ENTITY: CYP 3A4 (Homo sapiens, UniProt P08684)
Sequence (P08684 whole entry): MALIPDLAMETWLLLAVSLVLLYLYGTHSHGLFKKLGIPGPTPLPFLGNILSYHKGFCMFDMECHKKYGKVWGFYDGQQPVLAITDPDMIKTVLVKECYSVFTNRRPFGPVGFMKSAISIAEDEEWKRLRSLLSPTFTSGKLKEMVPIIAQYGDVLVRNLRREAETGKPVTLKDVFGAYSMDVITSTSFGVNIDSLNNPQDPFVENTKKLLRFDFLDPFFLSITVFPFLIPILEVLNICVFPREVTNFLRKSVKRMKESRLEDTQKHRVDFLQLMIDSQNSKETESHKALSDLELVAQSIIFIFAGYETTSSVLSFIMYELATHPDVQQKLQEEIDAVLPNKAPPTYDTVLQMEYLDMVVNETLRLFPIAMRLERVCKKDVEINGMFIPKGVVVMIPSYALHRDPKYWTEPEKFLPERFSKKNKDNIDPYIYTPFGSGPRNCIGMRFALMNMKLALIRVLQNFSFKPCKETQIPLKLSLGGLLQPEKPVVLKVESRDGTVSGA
ASSAY_INFO: inhibition of CYP enzymes 3A4
Type: in vitro ADME
MEASURE: IC50
State the value, then name its unit.

Lab note: need IC50 for CC/C(=C(/c1ccc(/C=C/C(=O)O)cc1)c1cc2ccccc2[nH]1)c1ccc(F)cc1Cl on CYP 3A4 (Homo sapiens, UniProt P08684), anyone have it?
25.1 µM
